Values were extracted from patent US20230126447A1.

# assay.procedure: Ocular tissue distribution and pharmacokinetics, 7.5 and 15 mg/kg oral, pigmented Dutch Belted rabbits (Example 7)
# Type: in vivo
# assay.setup: male, Dutch Belted, rabbit, plasma, po, 15 mg/kg, plasma, male DB rabbits, Group 3, Day 15, 15 mg/kg/dose BID oral (30 mg/kg/day); read-out: AUC0-24

compound	AUC(0-t)
CC(=O)c1nn(CC(=O)N2C[C@H](F)C[C@H]2C(=O)Nc2cccc(Br)n2)c2ccc(-c3cnc(C)nc3)cc12 [Compound 1]	4010 ng·h/mL

###

# assay.procedure: Ocular tissue distribution and pharmacokinetics, 7.5 and 15 mg/kg oral, pigmented Dutch Belted rabbits (Example 7)
# Assay type: in vivo
# assay.setup: Dutch Belted, rabbit, choroid-RPE, oral, […], DB rabbits, Day 1, […] single dose, 24 hr; read-out: Mean Choroid-RPE Concentration

molecule	units.of.measure	concentration at 24 h
CC(=O)c1nn(CC(=O)N2C[C@H](F)C[C@H]2C(=O)Nc2cccc(Br)n2)c2ccc(-c3cnc(C)nc3)cc12	ng/g	78
